Target: Flt-3 (baculovirus expressed human Flt-3 kinase domain R571-S993) (Homo sapiens, UniProt P36888)
Construct: human Flt-3 kinase domain R571-S993; host or cells: baculovirus expression
Sequence (P36888 571-993): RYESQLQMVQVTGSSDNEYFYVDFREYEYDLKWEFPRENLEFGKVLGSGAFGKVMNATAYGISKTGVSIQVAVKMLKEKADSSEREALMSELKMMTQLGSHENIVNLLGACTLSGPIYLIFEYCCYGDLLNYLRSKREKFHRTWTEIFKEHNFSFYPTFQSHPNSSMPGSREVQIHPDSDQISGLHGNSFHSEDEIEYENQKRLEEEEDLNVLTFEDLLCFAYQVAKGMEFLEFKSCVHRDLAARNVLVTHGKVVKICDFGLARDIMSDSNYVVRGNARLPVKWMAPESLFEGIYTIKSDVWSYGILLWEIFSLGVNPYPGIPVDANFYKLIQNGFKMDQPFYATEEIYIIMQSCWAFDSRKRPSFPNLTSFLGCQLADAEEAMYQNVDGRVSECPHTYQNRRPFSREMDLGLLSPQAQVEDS
Test: biochemical
Settings: read-out: flt3 IC50
value.kind: IC50

Use these answered entries as a reference point.
| compound | IC50 |
| --- | --- |
| COc1cc2c(Oc3ccc(NC(=O)C4(C(=O)Nc5ccc(F)cc5)CC4)c(C)c3)ccnc2cc1OCCCN1CCOCC1 [Example 331] | 50 to 500 nM |
| COc1cc2c(Oc3ccc(NC(=O)C(=O)NCCN4CCOCC4)cc3F)ccnc2cc1OCC1CCNCC1 [Example 298] | < 50 nM |
| COc1cc2nccc(Oc3nc(C)c(NC(=O)C4(C(=O)Nc5ccc(F)cc5)CC4)cc3Cl)c2cc1OC [Example 320] | 50 to 500 nM |
| CCN(CC)CCCOc1cc2ncnc(Oc3ccc(NC(=O)C4(C(=O)Nc5ccc(F)cc5)CC4)cc3F)c2cc1OC [Example 349] | < 50 nM |
| COc1cc2c(Oc3ccc(NC(=O)C4(C(=O)Nc5ccc(F)cc5)CC4)cc3F)ccnc2cc1OCC1CCN(C)CC1 [Example 334] | < 50 nM |

Query COc1cc2nccc(Oc3cc(C)c(NC(=O)C4(C(=O)Nc5ccc(F)cc5)CC4)cc3F)c2cc1OC [Example 328] yields IC50 of 500 to 5000 nM

Lab note: measured IC50 of COc1cc2c(Oc3ccc(NC(=O)[C@]4(C(=O)Nc5ccc(F)cc5)C[C@H]4C)cc3F)ccnc2cc1OCCCN1CCN(C(=O)OC(C)(C)C)CC1 [Example 351] was 50 to 500 nM

For this compound ( COc1cc2c(Oc3ccc(NC(=O)C4(C(=O)Nc5ccc(F)cc5)CC4)cc3F)ncnc2cc1OCCCN1CCOCC1 [Example 315] ), measured IC50 is < 50 nM

// IC50 lookup, compound = COc1cc2ncnc(Oc3ccc(NC(=O)C4(C(=O)Nc5ccc(F)cc5)CC4)cc3)c2cc1OC [Example 310] , result: < 50 nM

====

Reported IC50 values for the following molecules.
Target: c-Kit kinase (Homo sapiens, UniProt P10721)
Sequence (P10721 26-976): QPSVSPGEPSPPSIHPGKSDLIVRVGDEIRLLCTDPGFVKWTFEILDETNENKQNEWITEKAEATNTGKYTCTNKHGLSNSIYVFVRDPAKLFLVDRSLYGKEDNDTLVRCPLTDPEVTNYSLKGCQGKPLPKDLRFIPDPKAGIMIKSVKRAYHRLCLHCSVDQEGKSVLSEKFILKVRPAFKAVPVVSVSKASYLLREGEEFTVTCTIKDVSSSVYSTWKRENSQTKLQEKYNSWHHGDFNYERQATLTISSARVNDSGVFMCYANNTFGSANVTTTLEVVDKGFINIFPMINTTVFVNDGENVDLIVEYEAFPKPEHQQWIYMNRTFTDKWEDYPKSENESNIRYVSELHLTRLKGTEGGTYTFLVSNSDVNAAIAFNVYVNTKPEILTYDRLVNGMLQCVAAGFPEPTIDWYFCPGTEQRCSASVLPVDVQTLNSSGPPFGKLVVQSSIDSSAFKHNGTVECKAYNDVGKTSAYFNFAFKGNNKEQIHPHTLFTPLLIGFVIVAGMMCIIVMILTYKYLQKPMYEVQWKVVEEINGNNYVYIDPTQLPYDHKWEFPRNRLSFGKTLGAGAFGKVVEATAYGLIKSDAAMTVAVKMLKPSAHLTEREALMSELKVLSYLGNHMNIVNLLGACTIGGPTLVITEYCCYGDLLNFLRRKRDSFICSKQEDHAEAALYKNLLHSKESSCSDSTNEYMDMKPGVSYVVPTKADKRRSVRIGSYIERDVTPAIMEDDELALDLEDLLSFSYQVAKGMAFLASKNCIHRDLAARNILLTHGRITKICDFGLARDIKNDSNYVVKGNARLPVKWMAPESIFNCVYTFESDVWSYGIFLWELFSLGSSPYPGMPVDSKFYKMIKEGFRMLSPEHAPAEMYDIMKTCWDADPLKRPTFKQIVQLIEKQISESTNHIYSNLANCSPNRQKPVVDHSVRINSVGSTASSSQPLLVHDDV
Assay: c-Kit AlphaScreen kinase assay;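 note: c-Kit kinase phosphorylating biotinylated poly(Glu,Tyr), ATP near its KM, 1 h reaction at ambient temperature, AlphaScreen chemiluminescence with streptavidin donor and anti-phosphotyrosine acceptor beads, 10-point inhibitor titration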
Assay type: biochemical

Use these answered entries as a reference point.
| compound.structure.string | value.kind | result.value |
| --- | --- | --- |
| COc1cc2nccc(Oc3ccc(NC(=O)C4(C(=O)Nc5ccc(F)cc5)CC4)c(C)c3)c2cc1OC | IC50 | < 50 nM |
| COc1cc2c(Oc3ccc(NC(=O)C(=O)NCCN4CCOCC4)cc3F)ccnc2cc1OCC1CCNCC1 | IC50 | 50 to 500 nM |

In the following, a different molecule is considered.
Value (IC50, c-Kit kinase (Homo sapiens, UniProt P10721)) for record "COc1cc2ncnc(Oc3ccc(NC(=O)C4(C(=O)Nc5ccc(F)cc5)CC4)cc3F)c2cc1OCCCN1CCOCC1" = 50 to 500 nM

====

pIC50 overview
Molecular target: Flt-3 (baculovirus expressed human Flt-3 kinase domain R571-S993) (Homo sapiens);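 note: Luciferase-coupled chemiluminescent kinase assay, activity read as percent ATP left after a 3 h reaction at room temperature, ATP near KM, 10-point dose-response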
Construct: human Flt-3 kinase domain R571-S993; host or cells: baculovirus expression
Experiment: biochemical
Conditions: read-out: flt3 IC50
pIC50: −log10 of the molar value.

Solved cases (3 shown):
| compound.structure.string | result.value |
| --- | --- |
| COc1cc2nccc(Oc3ccc(NC(=O)C4(C(=O)Nc5ccc(F)cc5)CC4)c(C)n3)c2cc1OC | 5.30 to 6.30 |
| COc1cc2c(Oc3ccc(NC(=O)C(=O)NC(C)C)cc3F)ccnc2cc1OCC1CCNCC1 | 6.30 to 7.30 |
| COc1cc2nccc(Oc3cc(Cl)c(NC(=O)C4(C(=O)Nc5ccc(F)cc5)CC4)cc3C)c2cc1OC | 5.30 to 6.30 |

Quick note, pIC50 for "COc1cc2c(Oc3ccc(NC(=O)[C@@]4(C(=O)Nc5ccc(F)cc5)C[C@H]4C)cc3F)ccnc2cc1OCCCN1CCOCC1" landed at > 7.30

====

Biological target: KDR (baculovirus expressed human KDR kinase domain D807-V1356) (Homo sapiens, UniProt P35968);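 note: Luciferase-coupled chemiluminescent kinase assay, activity read as percent ATP left after 4 h reaction at ambient temperature, ATP near KM, 10-point dose-response in 384-well plates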
Construct: human KDR kinase domain D807-V1356; host or cells: baculovirus expression
Sequence (P35968 807-1356): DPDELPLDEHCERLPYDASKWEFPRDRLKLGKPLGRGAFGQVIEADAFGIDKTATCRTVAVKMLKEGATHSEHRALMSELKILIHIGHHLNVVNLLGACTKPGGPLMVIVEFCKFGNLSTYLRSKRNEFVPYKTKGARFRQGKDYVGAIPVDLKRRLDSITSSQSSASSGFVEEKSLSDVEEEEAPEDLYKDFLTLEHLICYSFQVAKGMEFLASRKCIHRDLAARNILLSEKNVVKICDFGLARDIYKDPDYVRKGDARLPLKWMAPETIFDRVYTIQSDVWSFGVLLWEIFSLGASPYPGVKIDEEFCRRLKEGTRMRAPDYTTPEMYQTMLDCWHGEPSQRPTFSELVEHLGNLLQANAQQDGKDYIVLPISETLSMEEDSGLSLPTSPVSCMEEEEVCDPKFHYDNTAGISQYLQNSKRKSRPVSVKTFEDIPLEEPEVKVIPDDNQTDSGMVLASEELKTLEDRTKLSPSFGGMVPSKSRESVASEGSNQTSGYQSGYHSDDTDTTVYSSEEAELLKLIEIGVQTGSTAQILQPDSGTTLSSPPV
Assay: biochemical
Settings: Table 4, inhibition as IC50 class
value.kind: IC50

Some solved entries appear below for comparison.
| compound.structure.string | value.kind | result.value |
| --- | --- | --- |
| COc1ccc(Br)cc1CCNC(=O)C(=O)Nc1ccc(Oc2ccnc3cc(OCC4CCNCC4)c(OC)cc23)c(F)c1 | IC50 | < 50 nM |
| COc1cc2c(Oc3ccc(NC(=O)C(=O)NCc4cccc(OC(F)(F)F)c4)cc3F)ccnc2cc1OCC1CCNCC1 | IC50 | < 50 nM |
| COc1cc2c(Oc3ccc(NC(=O)C(=O)Nc4ccc(F)c(Cl)c4)cc3F)ccnc2cc1OCC1CCNCC1 | IC50 | 500 to 5000 nM |

Kindly note the recorded IC50 for "COc1cc2c(Oc3ccc(NC(=O)C(=O)NCc4c(F)cccc4F)cc3F)ccnc2cc1OCC1CCNCC1" , which is < 50 nM

The value of IC50 measured for the compound "COc1cc2c(Oc3ccc(NC(=O)C(=O)NCCC(C)(C)C)cc3F)ccnc2cc1OCC1CCNCC1" turned out to be < 50 nM

For reference, reported IC50 for "COc1cc2c(Oc3ccc(NC(=O)C(=O)NCc4cc(Cl)cc(Cl)c4)cc3F)ccnc2cc1OCC1CCNCC1" stands at < 50 nM

Looking up "COc1cc2c(Oc3ccc(NC(=O)C(=O)NCc4cc(C(F)(F)F)cc(C(F)(F)F)c4)cc3F)ccnc2cc1OCC1CCNCC1" , I see its IC50 listed as < 50 nM

====

Molecular target: c-Kit kinase (Homo sapiens)
Assay: c-Kit AlphaScreen kinase assay
Type: biochemical
pIC50: −log10 of the molar value.
value.kind: pIC50

The value of pIC50 measured for the molecule "COc1cc2c(Oc3ccc(NC(=O)C4(C(=O)Nc5ccc(F)cc5)CC4)cc3F)ccnc2cc1OCC1CCN(C)CC1" turned out to be > 7.30

// "COc1cc2ncnc(Oc3ccc(NC(=O)C4(C(=O)Nc5ccc(F)cc5)CC4)cc3)c2cc1OC" : pIC50 value = > 7.30

The reported value for "COc1cc2c(Oc3ncc(NC(=O)C4(C(=O)Nc5ccc(F)cc5)CC4)cc3Cl)ccnc2cc1OCc1ccccc1" in terms of pIC50 is 5.30 to 6.30

pIC50 reported for this molecule "COc1cc2c(Oc3ccc(NC(=O)C(=O)NCC4CC4)cc3F)ccnc2cc1OCC1CCNCC1" : 6.30 to 7.30

Briefly, pIC50 measured for "COc1cc2nccc(Oc3ncc(NC(=O)C(C)(C)C(=O)Nc4ccc(F)cc4)cc3Cl)c2cc1OC" : 6.30 to 7.30

The measured pIC50 associated with "COc1cc2c(Oc3ccc(NC(=O)C4(C(=O)Nc5ccc(F)cc5)CC4)cc3F)ccnc2cc1OCCCN1CCCCC1" reads > 7.30

Field pIC50 (entry "COc1cc2nccc(Oc3cc(Cl)c(NC(=O)C4(C(=O)Nc5ccc(F)cc5)CC4)cc3C)c2cc1OC" ) reads 6.30 to 7.30

Noted for "COc1cc2c(Oc3ccc(NC(=O)C4(C(=O)Nc5ccc(F)cc5)CC4)cc3F)ccnc2cc1OCCCN1CCNCC1" : its pIC50 reads > 7.30

Sample "COc1cc2ncnc(Oc3ccc(NC(=O)C4(C(=O)Nc5ccc(F)cc5)CC4)cc3F)c2cc1OC" ; pIC50 observed: 6.30 to 7.30

pIC50 reported for this molecule "COc1cc2c(Oc3ccc(NC(=O)[C@@]4(C(=O)Nc5ccc(F)cc5)C[C@H]4C)cc3F)ccnc2cc1OCCCN1CCOCC1" : 6.30 to 7.30

Lab book: pIC50 of "COc1cc2c(Oc3ccc(NC(=O)C4(C(=O)Nc5ccc(F)cc5)CC4)c(C)n3)ccnc2cc1OCCCN1CCOCC1" noted as 6.30 to 7.30

Lab book: pIC50 of "COc1cc2c(Oc3ccc(NC(=O)C4(C(=O)Nc5ccc(F)cc5)CC4)cc3F)ccnc2cc1OCCCN1CCN(C)CC1" noted as > 7.30

Reported pIC50 ( "COc1cc2c(Oc3ccc(NC(=O)[C@]4(C(=O)Nc5ccc(F)cc5)C[C@H]4C)cc3F)ccnc2cc1OCCCN1CCOCC1" ) = > 7.30

// pIC50 lookup, molecule = "COc1cc2nccc(Oc3ccc(NC(=O)CC(=O)Nc4ccc(F)cc4)cc3)c2cc1OC" , result: > 7.30
